Origin of measurements: patent US8624002B2

Attribute: Fragment (%)
# assayProcedure: Accelerated stability screening monitored by SEC
# Assay type: physicochemical
# conditionNotes: SEC, start of stability study
Write the number in % without appending the unit.

Below are worked cases with known answers.
Query: Fragment (%); subject: Hu2B5.4: humanized 2B5-8.0; VH SEQ ID NO 66, VL SEQ ID NO 67 (antibody, V domains shown) VH: EVQLVQSGAEVKKPGASVKVSCKASGYTFTKYWLGWVRQAPGQGLEWIGDIYPGYDYTHYNEKFKDRATLTVDTSTSTAYMELSSLRSDDTAVYYCARSDGSSTYWGQGTLVTVSS VL: DVLMTQTPLSLPVTPGEPASISCTSSQNIVHSNGNTYLEWYLQKPGQSPQLLIYKVSNRFSGVPDRFSGSGSGTDFTLKISRVEAEDVGVYYCFQVSHVPYTFGGGTKVEIKR
Reply: 3.2146

Query: Fragment (%); subject: Hu2B5.2: humanized 2B5-8.0; VH SEQ ID NO 62, VL SEQ ID NO 63 (antibody, V domains shown) VH: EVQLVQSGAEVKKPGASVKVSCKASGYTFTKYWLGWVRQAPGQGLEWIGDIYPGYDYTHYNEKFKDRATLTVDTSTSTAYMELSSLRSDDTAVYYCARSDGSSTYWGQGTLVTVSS VL: DVVMTQTPLSLPVTPGEPASISCTSSQNIVHSNGNTYLEWYLQKPGQSPQLLIYKVSNRFSGVPDRFSGSGSGTDFTLKISRVEAEDVGVYYCFQVSHVPYTFGGGTKVEIKR
Reply: 3.3025

Query: Fragment (%); subject: Hu2B5.6: humanized 2B5-8.0; VH SEQ ID NO 70, VL SEQ ID NO 71 (antibody, V domains shown) VH: EVQLVQSGAEVKKPGASVKVSCKASGYTFTKYWLGWVRQAPGQGLEWMGDIYPGYDYTHYNEKFKDRVTLTTDTSTSTAYMELSSLRSDDTAVYYCARSDGSSTYWGQGTLVTVSS VL: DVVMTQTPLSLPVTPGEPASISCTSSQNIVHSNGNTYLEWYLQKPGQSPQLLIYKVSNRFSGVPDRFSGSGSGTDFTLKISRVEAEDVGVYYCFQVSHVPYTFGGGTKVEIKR
Reply: 2.7275

Query: Fragment (%); subject: Hu2B5.3: humanized 2B5-8.0; VH SEQ ID NO 64, VL SEQ ID NO 65 (antibody, V domains shown) VH: EVQLVQSGAEVKKPGASVKVSCKASGYTFTKYWLGWVRQAPGQGLEWIGDIYPGYDYTHYNEKFKDRATLTVDTSTSTAYMELRSLRSDDTAVYYCARSDGSSTYWGQGTLVTVSS VL: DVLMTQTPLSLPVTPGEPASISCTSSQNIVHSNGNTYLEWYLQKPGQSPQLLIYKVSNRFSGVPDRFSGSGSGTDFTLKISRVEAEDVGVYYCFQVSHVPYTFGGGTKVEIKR
Reply: 3.6853

Here is the next item to consider.
Query: Fragment (%); subject: Hu2B5.8: humanized 2B5-8.0; VH SEQ ID NO 74, VL SEQ ID NO 75 (antibody, V domains shown) VH: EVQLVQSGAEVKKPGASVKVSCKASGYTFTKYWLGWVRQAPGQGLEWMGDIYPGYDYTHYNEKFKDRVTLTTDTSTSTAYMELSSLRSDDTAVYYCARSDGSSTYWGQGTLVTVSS VL: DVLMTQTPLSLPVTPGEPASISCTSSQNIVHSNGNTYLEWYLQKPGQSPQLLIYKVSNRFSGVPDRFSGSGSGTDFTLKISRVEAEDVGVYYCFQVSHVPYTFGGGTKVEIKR
Reply: 3.2904
